Listing of recorded one-hybrid fitness for binding parS DNA by entry.
B1: Caulobacter ParB omega fusion; a variant is named by its letters at X, in order, B8GW30 (parent)
chain: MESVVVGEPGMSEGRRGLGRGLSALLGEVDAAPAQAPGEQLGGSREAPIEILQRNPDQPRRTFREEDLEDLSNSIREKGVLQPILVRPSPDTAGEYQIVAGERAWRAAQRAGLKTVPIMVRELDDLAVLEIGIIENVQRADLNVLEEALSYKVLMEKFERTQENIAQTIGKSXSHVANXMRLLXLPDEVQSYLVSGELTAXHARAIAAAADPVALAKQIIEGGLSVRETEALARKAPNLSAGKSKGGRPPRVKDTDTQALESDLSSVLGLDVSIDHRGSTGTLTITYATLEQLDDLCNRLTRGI

Variants of: B1
Assay: one-hybrid fitness for binding parS DNA (scaled: cognate 1, non-cognate 0); higher = stronger binding
Details: with parS DNA site
Over roughly 81,000 sequences, “one-hybrid fitness for binding parS DNA” has its median near -0.17; the highest 2% begin near 0.51. This excerpt belongs to a sample that is enriched for the highest values.

Example entries begin here.
mutation_key=RTNN result=0.424
mutation_key=ARLQ result="≤ 0.2"

Then this variant:
Kindly note the recorded one-hybrid fitness for binding parS DNA for `QDYS` , which is ≤ 0.2
